- study-target: PRKD2 (human) (UniProt Q9BZL6)
- Sequence (Q9BZL6 whole entry, looked up): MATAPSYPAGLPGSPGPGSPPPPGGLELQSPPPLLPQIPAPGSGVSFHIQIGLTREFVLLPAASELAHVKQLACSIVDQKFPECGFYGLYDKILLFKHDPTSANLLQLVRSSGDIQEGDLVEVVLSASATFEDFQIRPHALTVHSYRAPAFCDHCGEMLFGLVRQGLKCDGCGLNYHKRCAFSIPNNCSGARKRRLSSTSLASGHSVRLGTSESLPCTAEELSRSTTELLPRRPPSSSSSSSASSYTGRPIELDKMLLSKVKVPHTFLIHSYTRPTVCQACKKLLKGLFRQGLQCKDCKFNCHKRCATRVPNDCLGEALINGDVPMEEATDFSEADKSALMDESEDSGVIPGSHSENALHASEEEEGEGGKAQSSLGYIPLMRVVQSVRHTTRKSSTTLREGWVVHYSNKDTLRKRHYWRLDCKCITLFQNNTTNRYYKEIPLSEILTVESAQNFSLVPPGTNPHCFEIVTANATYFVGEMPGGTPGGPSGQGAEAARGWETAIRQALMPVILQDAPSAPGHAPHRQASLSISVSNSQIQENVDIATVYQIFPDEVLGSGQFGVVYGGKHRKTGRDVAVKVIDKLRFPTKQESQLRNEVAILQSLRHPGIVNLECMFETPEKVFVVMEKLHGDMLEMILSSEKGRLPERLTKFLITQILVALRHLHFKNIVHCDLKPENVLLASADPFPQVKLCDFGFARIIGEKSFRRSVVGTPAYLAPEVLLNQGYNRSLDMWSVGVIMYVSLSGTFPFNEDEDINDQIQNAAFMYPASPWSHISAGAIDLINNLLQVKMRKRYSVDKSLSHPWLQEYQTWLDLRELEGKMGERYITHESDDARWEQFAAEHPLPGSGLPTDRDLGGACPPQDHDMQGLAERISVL
- procedure-text: Caliper, Mobility shift assay off-chip
- recorded-conditions: compound 1.0 µM
parameter: inhibition (%)
Quick reminder: number only, in %, skip the unit.

O=C(CCc1ccc2ccc3ncc(C4CCNCC4)cc3c(=O)c2c1)NCc1ccccn1    0
CN(c1ccc2ccc3ncc(-c4cnn(C)c4)cc3c(=O)c2c1)S(=O)(=O)NCc1ccccn1    -9.6
Cn1cc(-c2cnc3ccc4ccc(CS(N)(=O)=O)cc4c(=O)c3c2)cn1    -2.6
Cn1cc(-c2cnc3ccc4ccc(CS(=O)(=O)CCc5ccccn5)cc4c(=O)c3c2)cn1    -3.5

INPUT: Given the compound Cn1cc(-c2cnc3ccc4ccc(CS(=O)(=O)NCC5CCCCN5)cc4c(=O)c3c2)cn1 (stereo not given) , what is its reported inhibition?
OUTPUT: 15

====

Form field: inhibition (one value per entry).
- study-target: SYK (human)
- procedure-text: Caliper, Mobility shift assay off-chip
- recorded-conditions: compound 0.1 µM
API: value field is a number in %; no unit string.

CN(c1ccc2ccc3ncc(-c4cnn(C)c4)cc3c(=O)c2c1)S(=O)(=O)NCc1ccccn1    8.7
Cn1cc(-c2cnc3ccc4ccc(CS(N)(=O)=O)cc4c(=O)c3c2)cn1    1.9
Cn1cc(-c2cnc3ccc4ccc(CS(=O)(=O)NCC5CCCCN5)cc4c(=O)c3c2)cn1 (configuration not stated)    13.6
Cn1cc(-c2cnc3ccc4ccc(CS(=O)(=O)CCc5ccccn5)cc4c(=O)c3c2)cn1    1.2
Cn1cc(-c2cnc3ccc4ccc(CS(=O)(=O)NC5CCCCC5)cc4c(=O)c3c2)cn1    -4.4

INPUT: I have this molecule here, O=c1c2cc(CS(=O)(=O)NCc3ccccn3)ccc2ccc2ncc(C3CCNCC3)cc12 , and I need its recorded inhibition.
OUTPUT: 6.2

INPUT: Which value of inhibition has been reported for O=C(CCc1ccc2ccc3ncc(C4CCNCC4)cc3c(=O)c2c1)NCc1ccccn1 in the records?
OUTPUT: -0.6

====

The reader will find reported inhibition values listed item by item below.
- study-target: CHEK2 (human) (UniProt O96017)
- Sequence (O96017 whole entry, looked up): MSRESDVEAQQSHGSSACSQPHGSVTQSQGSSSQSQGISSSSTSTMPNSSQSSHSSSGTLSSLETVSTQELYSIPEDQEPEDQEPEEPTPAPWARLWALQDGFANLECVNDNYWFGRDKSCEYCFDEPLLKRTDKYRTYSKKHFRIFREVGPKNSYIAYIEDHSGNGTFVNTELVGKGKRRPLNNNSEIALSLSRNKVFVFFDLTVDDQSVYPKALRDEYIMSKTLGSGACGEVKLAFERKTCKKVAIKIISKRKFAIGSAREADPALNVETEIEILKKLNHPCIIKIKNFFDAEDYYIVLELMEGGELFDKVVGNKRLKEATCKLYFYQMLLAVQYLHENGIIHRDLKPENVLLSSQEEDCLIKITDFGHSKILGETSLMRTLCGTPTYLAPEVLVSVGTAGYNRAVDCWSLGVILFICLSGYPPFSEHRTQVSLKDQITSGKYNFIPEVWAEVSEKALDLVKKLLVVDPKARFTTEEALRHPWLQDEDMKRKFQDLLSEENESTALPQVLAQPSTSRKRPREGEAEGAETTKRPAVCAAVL
- procedure-text: Caliper, Mobility shift assay off-chip
- recorded-conditions: compound 0.1 µM
Give the value in % but do not write % after it.

Cn1cc(-c2cnc3ccc4ccc(CS(=O)(=O)NC5CCCCC5)cc4c(=O)c3c2)cn1    -7.4

INPUT: Returns the measured inhibition for the input molecule. Input: Cn1cc(-c2cnc3ccc4ccc(CS(N)(=O)=O)cc4c(=O)c3c2)cn1
OUTPUT: -3.5

INPUT: Returns the measured inhibition for the input molecule. Input: O=C(CCc1ccc2ccc3ncc(C4CCNCC4)cc3c(=O)c2c1)NCc1ccccn1
OUTPUT: 4.2

INPUT: Record request: inhibition value, item Cn1cc(-c2cnc3ccc4ccc(CS(=O)(=O)CCc5ccccn5)cc4c(=O)c3c2)cn1
OUTPUT: -0.4

INPUT: Data request, read-out inhibition, for O=c1c2cc(CS(=O)(=O)NCc3ccccn3)ccc2ccc2ncc(C3CCNCC3)cc12
OUTPUT: -5.1

INPUT: Item Cn1cc(-c2cnc3ccc4ccc(CS(=O)(=O)NCC5CCCCN5)cc4c(=O)c3c2)cn1 (configuration not stated) has what recorded inhibition?
OUTPUT: 4.63

INPUT: Form field: reported inhibition of CN(c1ccc2ccc3ncc(-c4cnn(C)c4)cc3c(=O)c2c1)S(=O)(=O)NCc1ccccn1
OUTPUT: -1.5
